Origin of measurements: PubChem BioAssay AID1159580

- experimentSummary: chemical genetic growth profiling, strain panel (AID 1159580);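 also: tested at 20 µM; growth read once vehicle control cultures reached saturation at 30 °C; 1 = growth at the plate median or of vehicle wells; lower values mean less growth of the strain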
- conditionDescription: S. cerevisiae deletion strains, growth OD, locus YPL240C, strain hsp82, active compounds read low
Hit rate of the full screen: of about 5,500 compounds, about 2,000 (36%) were called active. Roughly 18% stayed inconclusive and do not appear here. The list shows a part of the results. Where a SMILES comes first, the peptide text is derived from it.
assayMetric: normalized growth

COC(=O)[C@H](Cc1ccccc1)NC(=O)[C@@H](N)CC(=O)O (H-Asp-Phe-OMe) | 1.01 (inactive)
C[C@H]1O[C@H](OC2[C@@H](O)[C@@H](O)C(O)[C@H](O)[C@H]2O)[C@@H](N)C[C@@H]1N=C(N)C(=O)O (some centres undefined) | 0.97 (inactive)
CCCCCc1c2c(cc(O)c1C(=O)O)OC(=O)c1c(cc(OC)cc1C(=O)CCCC)O2 | 0.998 (inactive)

Now turn to the next compound.
Q. Specify measured normalized growth for O=c1c(O)c(-c2ccc(O)c(O)c2)oc2c(O[C@@H]3O[C@H](CO)[C@H](O)[C@@H](O)[C@H]3O)c(O)cc(O)c12 .
A. 1.02 (inactive)

---

- experimentSummary: chemical genetic growth profiling, strain panel (AID 1159580)
- conditionDescription: S. cerevisiae deletion strains, growth OD, locus YLR268W, strain sec22, active compounds read low
The campaign covered roughly 5,500 compounds. About 2,000 (36%) were called active. Not shown: some 18% with an inconclusive outcome. The list shows a part of the results.
Could you mark each record MET if its normalized growth falls strictly under 1, and NOT MET if it equals or exceeds it?

CC(=O)OC1CN2CCC1CC2 (stereo not given) | NOT MET

Q. normalized growth under 1? Item: CC(CC(O)C1OC1(C)C)[C@@H]1CCC2(C)C3=CCC4C(C)(C)C(=O)CCC4(C)C3CC[C@@]12C (stereo not given in full)
A. NOT MET

Q. normalized growth under 1? Item: CCC(c1ccc(O)cc1)C(CC)c1ccc(O)cc1 (stereo not given)
A. MET

Q. normalized growth under 1? Item: CCCCCCCCCCCC1=C(O)C(=O)C=C(O)C1=O
A. MET

Q. normalized growth under 1? Item: CC1O[C@@H](Oc2c(-c3ccc(O)c(O)c3)oc3cc(O)cc(O)c3c2=O)[C@H](O)[C@H](O)[C@H]1O (stereo not given in full)
A. MET

Q. normalized growth under 1? Item: CCOC(=O)c1c(C)cc(OC)cc1O
A. MET

---

As shown below, each of these molecules has a reported normalized growth value.
- experimentSummary: chemical genetic growth profiling, strain panel (AID 1159580)
- conditionDescription: S. cerevisiae deletion strains, growth OD, locus YPR106W, strain ISR1, active compounds read low
About 2,000 (36%) of roughly 5,500 compounds were called active. Another 18% or so got no clear call; they are omitted. The list shows a part of the results.
Respond using a number only.

O=C(NNc1ccc(F)cc1F)c1sccc1Cl | 0.957
CC(NC(=S)N/N=C\c1ccccc1O)c1ccccc1 (stereo unspecified) | 0.992

Q. Specify measured normalized growth for Cc1cc(Cl)ccc1NNC(=O)c1sccc1Br .
A. 0.912

Q. Specify measured normalized growth for O=C1Nc2ccccc2/C1=C\c1ccc(Cl)cc1 .
A. 0.926

Q. Specify measured normalized growth for c1ccc(-c2nnc(-c3ccccn3)nc2-c2ccccc2)cc1 .
A. 0.919

Q. Specify measured normalized growth for Cc1ccc(NNC(=O)c2cccs2)cc1Cl .
A. 0.973

---

As shown below, each of these compounds has a reported normalized growth value.
- experimentSummary: chemical genetic growth profiling, strain panel (AID 1159580)
- conditionDescription: S. cerevisiae deletion strains, growth OD, locus YNL248C, strain rpa49, active compounds read low
Out of some 5,500 compounds screened, about 2,000 (36%) were called active. Another 18% or so got no clear call; they are omitted. Some of the results follow.
Respond using a number only.

C[C@]12CCC3c4ccc(OS(=O)(=O)O)cc4CCC3C1CC[C@H]2O (stereo partly drawn) | 0.914
CCN(Cc1ccncc1)C(=O)C(CO)c1ccccc1 (stereo not drawn) | 1.02
COC(=O)[C@@]1(C)CCC[C@]2(C)c3ccc(O)c(C(C)C)c3CCC12 (stereo partly drawn) | 0.916
CCCC(C)(COC(N)=O)COC(=O)NC(C)C (stereo not drawn) | 0.921

Q. Specify measured normalized growth for CCCCCC(=O)Cc1cc(O)cc(O)c1C(=O)Oc1cc(CC(=O)CCCCC)c(C(=O)O)c(OC)c1 .
A. 0.903

Q. Specify measured normalized growth for COC(=O)[C@]1(C)CCC[C@]2(C)c3ccc(C(C)C)cc3C(=O)CC12 (stereo partly drawn) .
A. 0.962

Q. Specify measured normalized growth for NC(=O)NCCCC(N)C(=O)O (stereo not drawn) .
A. 0.941

Q. Specify measured normalized growth for NC(=NCCC[C@H](N)C(=O)O)N[N+](=O)[O-] .
A. 1.01

---

- experimentSummary: chemical genetic growth profiling, strain panel (AID 1159580);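 also: tested at 20 µM; growth read once vehicle control cultures reached saturation at 30 °C; 1 = growth at the plate median or of vehicle wells; lower values mean less growth of the strain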
- conditionDescription: S. cerevisiae deletion strains, growth OD, locus YGR052W, strain FMP48, active compounds read low
Among all 5,500 compounds or so, about 2,000 (36%) were called active. Another 18% or so got no clear call; they are omitted. This is one part of the list.
assayMetric: normalized growth

Some entries whose results are on file:
Cc1cc(Cl)ccc1NNC(=O)c1sccc1Br | 0.908 (inactive)
c1ccc(-c2nnc(-c3ccccn3)nc2-c2ccccc2)cc1 | 0.641 (inactive)
Cc1nnc2n1N=C(c1ccc(CC(C)C)cc1)C(C)S2 (stereo unspecified) | 1.05 (inactive)
CCNC(=S)N/N=C\c1cc(Cl)cc(Cl)c1O | 0.709 (inactive)

Q. Specify measured normalized growth for O=C(NNc1ccc(F)cc1F)c1sccc1Cl .
A. 1 (inactive)

Q. Specify measured normalized growth for OC1(C(F)(F)F)CC(c2ccc3ccccc3c2)=NN1 (stereo unspecified) .
A. 0.15 (active)

Q. Specify measured normalized growth for O=C1Nc2ccccc2/C1=C\c1cccc([N+](=O)[O-])c1 .
A. 1.02 (inactive)

Q. Specify measured normalized growth for Oc1c(Cl)cc(Cl)cc1/C=N\NC(=S)Nc1cc(C(F)(F)F)cc(C(F)(F)F)c1 .
A. 0.132 (active)

Q. Specify measured normalized growth for FC(F)(F)c1cccc(NC(=S)NN=C2CCCCCC2)c1 .
A. 0.924 (inactive)

Q. Specify measured normalized growth for O=C(Nc1ccccc1)Nc1ccc(Cl)cc1[N+](=O)[O-] .
A. 1.01 (inactive)

Q. Specify measured normalized growth for O=S(=O)(CS(=O)(=O)Oc1ccc(Cl)c(Cl)c1)Oc1ccc(Cl)c(Cl)c1 .
A. 1.02 (inactive)

---

- experimentSummary: chemical genetic growth profiling, strain panel (AID 1159580);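 also: tested at 20 µM; growth read once vehicle control cultures reached saturation at 30 °C; 1 = growth at the plate median or of vehicle wells; lower values mean less growth of the strain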
- conditionDescription: S. cerevisiae deletion strains, growth OD, strain wtn01
Out of some 5,500 compounds screened, about 2,000 (36%) were called active. Roughly 18% stayed inconclusive and do not appear here. No stated cut-off is given here; in the data, active means normalized growth mostly below about 0.91 (no sharp cut-off); inconclusive means no clear call, values can overlap the other calls; inactive means mostly above about 0.92. This is one part of the list.
Log the outcome using a class from active, inactive

Consider the worked cases shown below.
O=c1c(O)c(-c2ccc(O)c(O)c2)oc2cc(O)cc(O)c12 | inactive
C[C@]12CCC3c4ccc(OS(=O)(=O)O)cc4CCC3C1CC[C@H]2O (stereo partly drawn) | inactive

Q. # fetch the recorded call for CC(=O)[C@@]1(O)CCC2C3C[C@H](C)C4=CC(=O)C=CC4(C)[C@@]3(F)[C@@H](O)C[C@@]21C (stereo partly drawn) here
A. inactive

Q. # fetch the recorded call for CC(=O)OC(C)C[N+](C)(C)C (stereo not drawn) here
A. inactive

Q. # fetch the recorded call for COc1ccc2c(c1)CCC1C2CC[C@@]2(C)C1CC[C@@H]2O (stereo partly drawn) here
A. active

Q. # fetch the recorded call for Cc1cc(C2CCCCC2)n(O)c(=O)c1 here
A. active

Q. # fetch the recorded call for CN1C(C)(C)CCCC1(C)C here
A. inactive

Q. # fetch the recorded call for CC1(C)C(=O)C=C[C@@]2(C)C1C[C@@H](O)[C@]1(C)C2CC[C@@]2(C)[C@H](c3ccoc3)OC(=O)[C@H]3O[C@]321 (stereo partly drawn) here
A. inactive

Q. # fetch the recorded call for CC12CCC3c4ccc(OC(=O)c5ccccc5)cc4CCC3C1CCC2O (stereo not drawn) here
A. inactive

Q. # fetch the recorded call for CC1(C)C2CC(=O)[C@]3(C)C(CC[C@@]4(C)[C@H](c5ccoc5)OC(=O)C5OC543)[C@@]2(C)[C@@H](O)C[C@H]1O (stereo partly drawn) here
A. inactive

Q. # fetch the recorded call for CCCCCCCCCCCCCCCCCC(=O)OC(CC(=O)O)C[N+](C)(C)C (stereo not drawn) here
A. active

---

- experimentSummary: chemical genetic growth profiling, strain panel (AID 1159580);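 also: tested at 20 µM; growth read once vehicle control cultures reached saturation at 30 °C; 1 = growth at the plate median or of vehicle wells; lower values mean less growth of the strain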
- conditionDescription: S. cerevisiae deletion strains, growth OD, locus YJL187C, strain SWE1 (second series), active compounds read low
About 2,000 (36%) of roughly 5,500 compounds were called active. About 18% were inconclusive and are not listed. This is one part of the list.
Could you mark each record met if its normalized growth falls strictly under 1, and not met if it equals or exceeds it?

Consider the worked cases shown below.
NS(=O)(=O)c1cc(C2(O)NC(=O)c3ccccc32)ccc1Cl (stereo not drawn) | not met
CN1C(C)(C)CCCC1(C)C | not met
COc1c(C(C)C)oc2cc3oc(=O)ccc3cc12 | met
COc1cccc2c(C)cc(=O)[nH]c12 | met
CC1(C)C(=O)C=C[C@@]2(C)C1C=C[C@]1(C)C2CC[C@@]2(C)[C@H](c3ccoc3)OC(=O)C3OC321 (stereo partly drawn) | met

Q. normalized growth under 1? Item: CC1(C)C2CC(=O)[C@]3(C)C(CC[C@@]4(C)[C@H](c5ccoc5)OC(=O)[C@H]5O[C@]543)[C@@]2(C)C(=O)C[C@H]1O (stereo partly drawn)
A. not met

Q. normalized growth under 1? Item: COc1cc2occc2c2oc(=O)ccc12
A. met

Q. normalized growth under 1? Item: O=C1C=C2C(=CCOC2O)O1 (stereo not drawn)
A. met

Q. normalized growth under 1? Item: CC1(C)C2CC(=O)[C@]3(C)C(CC[C@@]4(C)[C@H](c5ccoc5)OC(=O)C5OC543)[C@@]2(C)[C@@H](O)C[C@H]1O (stereo partly drawn)
A. not met

Q. normalized growth under 1? Item: CCOC(=O)c1c(C)cc(O)cc1O
A. met
